The measured values listed here are drawn from patent US20160185837A1.

# System Tested: human GLP-1 receptor (human) (UniProt P43220)
# Sequence (P43220 24-463): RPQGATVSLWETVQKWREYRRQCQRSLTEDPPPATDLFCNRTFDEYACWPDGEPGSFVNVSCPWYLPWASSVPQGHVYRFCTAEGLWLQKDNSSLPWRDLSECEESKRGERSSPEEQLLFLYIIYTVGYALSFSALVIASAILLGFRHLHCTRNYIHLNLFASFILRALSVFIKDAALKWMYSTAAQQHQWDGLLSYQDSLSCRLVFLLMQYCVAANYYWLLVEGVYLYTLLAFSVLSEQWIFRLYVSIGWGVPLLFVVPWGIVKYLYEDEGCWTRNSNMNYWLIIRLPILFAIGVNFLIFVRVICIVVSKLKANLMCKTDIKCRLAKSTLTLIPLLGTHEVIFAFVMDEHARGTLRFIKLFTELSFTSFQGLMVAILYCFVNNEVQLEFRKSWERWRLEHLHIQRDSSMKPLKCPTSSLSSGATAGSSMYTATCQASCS
# Experiment Description: cell-based or functional assay
Quantity Measured: cAMP EC50 (nM)

[[record]]
binder = "IP385 (Fc fusion) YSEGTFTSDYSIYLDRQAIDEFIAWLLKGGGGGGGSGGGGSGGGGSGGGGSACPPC"
readout_units = "nM"
assay_value = 0.47


(A) IP310 (Fc fusion) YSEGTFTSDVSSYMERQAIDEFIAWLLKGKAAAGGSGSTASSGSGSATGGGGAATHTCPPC
(B) IP174 (Fc fusion) HGEGTFTSDVSSYLEEEAAKEFIAWLVAGGAAAGGSGSTASSGSGSATGGGGAATHTCPPCPAPEF
(C) IP334 (Fc fusion) YSEGTFTSDYSIALAAAAQQDFVNWLLKGGGGGGGSGGGGSGGGGSGGGGSGGGGSGGGGSA
Prompt line: Ordering: ascending cAMP EC50. Write the labels out in the order the request specifies.
Response line: B, A, C
